Data provenance: the kinase profiling compilation of Christmann-Franck et al. (2016)

ASSAYED TARGET: CAMK4 (human) (UniProt Q16566)
Sequence (Q16566 whole entry, looked up): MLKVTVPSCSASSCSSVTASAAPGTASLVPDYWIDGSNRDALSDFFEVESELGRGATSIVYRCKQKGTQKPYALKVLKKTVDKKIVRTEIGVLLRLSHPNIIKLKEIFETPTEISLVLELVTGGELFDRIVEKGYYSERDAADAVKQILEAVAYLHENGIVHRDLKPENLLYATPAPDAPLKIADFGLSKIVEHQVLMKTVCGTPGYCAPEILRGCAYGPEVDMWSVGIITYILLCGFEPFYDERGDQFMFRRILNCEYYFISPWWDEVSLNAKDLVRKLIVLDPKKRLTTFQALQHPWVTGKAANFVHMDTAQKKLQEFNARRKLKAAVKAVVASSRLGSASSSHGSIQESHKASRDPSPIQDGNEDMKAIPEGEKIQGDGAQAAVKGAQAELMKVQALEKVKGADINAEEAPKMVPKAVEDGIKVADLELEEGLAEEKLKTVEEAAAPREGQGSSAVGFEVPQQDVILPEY
TEST DESCRIPTION: KINOMEscan competition binding
APPLIED CONDITIONS: compound 10.0 µM
Please go through the items and note down their kinase still bound, per cent of control.
Respond with the bare value in %.

response.value for CCCS(=O)(=O)Nc1ccc(F)c(C(=O)c2c[nH]c3ncc(-c4ccc(Cl)cc4)cc23)c1F (field: kinase still bound, per cent of control) = 100

response.value for OCCCNc1cc(-c2ccnc(Nc3cccc(Cl)c3)n2)ccn1 (field: kinase still bound, per cent of control) = 100

response.value for N#Cc1c(NC(=O)c2cccc3ccccc23)sc2c1CCCC2 (field: kinase still bound, per cent of control) = 100

response.value for CCOc1cc2ncc(C#N)c(Nc3ccc(OCc4ccccn4)c(Cl)c3)c2cc1NC(=O)/C=C/CN(C)C (field: kinase still bound, per cent of control) = 100

response.value for COc1cc(C(=O)NC2CCN(C)CC2)ccc1Nc1ncc2c(n1)N(C1CCCC1)CCC(=O)N2C(C)C (field: kinase still bound, per cent of control) = 100

response.value for Cn1c(=O)n(-c2ccc(C(C)(C)C#N)cc2)c2c3cc(-c4cnc5ccccc5c4)ccc3ncc21 (field: kinase still bound, per cent of control) = 100

response.value for COc1cc(N2CCN(C)CC2)ccc1Nc1nc(N)c(C(=O)c2c(Cl)cccc2Cl)s1 (field: kinase still bound, per cent of control) = 99

response.value for CCC(=O)N1CCN(c2ccc(-n3c(=O)ccc4cnc5ccc(-c6cnc7ccccc7c6)cc5c43)cc2C(F)(F)F)CC1 (field: kinase still bound, per cent of control) = 90

response.value for Nc1ccc(-c2ccc3ncc4ccc(=O)n(-c5cccc(C(F)(F)F)c5)c4c3c2)cn1 (field: kinase still bound, per cent of control) = 100

response.value for O=C(O)c1ccc(Nc2ncc3c(n2)-c2ccc(Cl)cc2C(c2c(F)cccc2F)=NC3)cc1 (field: kinase still bound, per cent of control) = 66

response.value for O=C(NOC[C@H](O)CO)c1ccc(F)c(F)c1Nc1ccc(I)cc1F (field: kinase still bound, per cent of control) = 100

response.value for Cc1ccc(NC(=O)c2cccc(C(C)(C)C#N)c2)cc1Nc1ccc2ncn(C)c(=O)c2c1 (field: kinase still bound, per cent of control) = 100

response.value for CN(C)C/C=C/C(=O)Nc1cccc(Nc2ncc3c(n2)N(C)c2ccccc2C(=O)N3C)c1 (field: kinase still bound, per cent of control) = 100

response.value for COc1cc(C(=O)NC2CCN(C)CC2)ccc1Nc1ncc2c(n1)N(C1CCCC1)C(C)CC(=O)N2C (stereo unspecified) (field: kinase still bound, per cent of control) = 100

response.value for Cc1cc([C@@H](C)Nc2ccccc2C(=O)O)c2nc(N3CCOCC3)cc(=O)n2c1 (field: kinase still bound, per cent of control) = 100

response.value for Cc1ccc(C(=O)Nc2cccc(C(F)(F)F)c2)cc1Nc1cncc(C(N)=O)c1 (field: kinase still bound, per cent of control) = 100
